Data provenance is ChEMBL document CHEMBL3352590.

// reported remaining at 4 h per item
Assay: Stability in 0.05 M pH 7.4 phosphate buffer containing 0.15 M KCl assessed as unhydrolyzed compound after 4 hrs at 37 degC
Assay type: physicochemical
Details: read-out: Stability

Value of measured remaining at 4 h for the entry `CC(=O)OC[C@H]1O[C@@H](OCCCOc2cccc(OCc3cc(-c4ccc(Cl)s4)on3)c2NC(=O)C2CCN(C(C)C)CC2)[C@H](OC(C)=O)[C@@H](OC(C)=O)[C@@H]1OC(C)=O` : > 90%

New cases:
Value of measured remaining at 4 h for the entry `CC(C)N1CCC(C(=O)Nc2c(OCCCO[C@@H]3O[C@H](CO)[C@@H](O)[C@H](O)[C@H]3O)cccc2OCc2cc(-c3ccc(Cl)s3)on2)CC1` : > 90%

Value of measured remaining at 4 h for the entry `CC(C)N1CCC(C(=O)Nc2ccccc2OCc2cc(-c3ccc(Cl)s3)on2)CC1` : > 90%
